Test: Metabolic stability in human liver microsomes assessed as intrinsic clearance at 1 uM incubated upto 60 mins by LC-MS/MS analysis
Type: ADME, Microsome
Details: read-out: CLH
Assay Metric: microsomal CLint at 1 µM (µL/min/mg)
// return numeric value only (unit: µL/min/mg, not printed)

Entry O=C(C1CC1)N1CCC(CN(Cc2ccc(Cl)c(Cl)c2)Cc2ccc([N+](=O)[O-])s2)C1 (stereo not drawn) has what microsomal CLint at 1 µM?
411

And what about the compound O=C(C1CC1)N1CCC(CN(Cc2ccc([N+](=O)[O-])s2)Cc2ccc(F)cc2F)C1 (stereo not drawn) ?
601

And what about the compound CCOC(=O)N1CCC(CN(Cc2ccc(Cl)cc2)Cc2ccc([N+](=O)[O-])s2)C1 (stereo not drawn) ?
622
